The measurements presented in this section are drawn from patent US8598179B2.

# assay.target: UniProt Q9H244
# run.description: Human P2Y12 recombinant cell membrane binding assay
# run.parameters: competition against 33P 2MeS-ADP; CHO cell membranes with recombinant human P2Y12 receptor
measurement.name: IC50 (nM)
Give just the numeric value; nM need not be written.

Input: // fetch IC50 given entry CC(C)(C)C(=O)COc1cc(C(=O)N[C@@H](CCC(=O)O)C(=O)N2CCN(C(=O)OC3CCC3)CC2)nn1-c1ccccc1 [Example 158]
Output: 266

Input: // fetch IC50 given entry CCOC(=O)N1CCN(C(=O)[C@H](CNC(=O)C(=O)O)NC(=O)c2cc(OCC(=O)C(C)(C)C)n(-c3ccccc3)n2)CC1 [Example 134]
Output: 501

Input: // fetch IC50 given entry CCCCOC(=O)N1CCN(C(=O)[C@H](CCC(=O)O)NC(=O)c2cc(OCC(=O)C(C)(C)C)n(-c3ccccc3)n2)CC1 [Example 147]
Output: 95

Input: // fetch IC50 given entry CCOC(=O)N1CCN(C(=O)[C@H](CC(=O)O)NC(=O)c2cc(OCC(=O)C(C)(C)C)n(-c3ccccc3)n2)CC1 [Example 163]
Output: 200

Input: // fetch IC50 given entry CC(C)(C)C(=O)COc1cc(C(=O)N[C@@H](CCC(=O)O)C(=O)N2CCC(C(=O)c3cccc(Cl)c3)CC2)nn1-c1ccccc1 [Example 127]
Output: 2800

----------
So I've got a bunch of compounds here, and I need their pIC50 values.
# Tested on: human platelet rich plasma (ADP-induced platelet aggregation)
# run.description: Inhibition of human platelet aggregation, 96-well assay
# Format: cell-based
# run.parameters: 20 min, aggregation induced by ADP, 96-well plates, AUC of absorbance over 20 minutes
A value of pIC50 is the negative decimal logarithm of a concentration given in moles per litre.

Input: // fetch pIC50 given entry CCOC(=O)N1CCN(C(=O)[C@H](CCC(=O)O)NC(=O)c2cc(OCC(=O)N[C@@H](C)C(=O)O)n(-c3ccccc3)n2)CC1 [Example 138]
Output: 5.83

Input: // fetch pIC50 given entry CCOC(=O)N1CCN(C(=O)[C@H](CCC(=O)O)NC(=O)c2cc(OCC(=O)N[C@H](C)C(=O)O)n(-c3ccccc3)n2)CC1 [Example 139]
Output: 5.73

Input: // fetch pIC50 given entry CCOC(=O)N1CCN(C(=O)[C@H](CCC(=O)O)NC(=O)c2cc(OCC(=O)NC3(C(=O)NC4CCC4)CCC3)n(-c3ccccc3)n2)CC1 [Example 167]
Output: 5.66

Input: // fetch pIC50 given entry CCOC(=O)N1CCN(C(=O)[C@H](CCC(=O)O)NC(=O)c2cc(OCC(=O)C3CC3)n(-c3ccccc3)n2)CC1 [Example 96]
Output: 5.59

----------
# assay.target: human P2Y12 receptor (Homo sapiens)
# Sequence (Q9H244 whole entry): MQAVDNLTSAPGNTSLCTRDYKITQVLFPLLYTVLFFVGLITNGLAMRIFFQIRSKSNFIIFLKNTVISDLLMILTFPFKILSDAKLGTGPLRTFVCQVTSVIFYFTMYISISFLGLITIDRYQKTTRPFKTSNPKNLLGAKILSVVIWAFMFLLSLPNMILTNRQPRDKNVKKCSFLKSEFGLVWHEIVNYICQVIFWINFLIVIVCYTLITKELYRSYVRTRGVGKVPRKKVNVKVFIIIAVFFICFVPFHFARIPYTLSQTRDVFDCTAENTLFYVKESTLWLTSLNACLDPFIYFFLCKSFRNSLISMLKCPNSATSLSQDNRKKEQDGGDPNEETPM
# run.description: Human P2Y12 recombinant cell membrane binding assay
# run.parameters: competition against 33P 2MeS-ADP; CHO cell membranes with recombinant human P2Y12 receptor
So I've got a bunch of compounds here, and I need their IC50 values.
Give just the numeric value; µM need not be written.

Input: Write down measured IC50 (human P2Y12 receptor (Homo sapiens)) for this compound. CCOC(=O)N1CCN(C(=O)[C@H](CC(C(=O)O)C(=O)O)NC(=O)c2cc(OC3(C(=O)OCC)CCC3)n(-c3ccccc3)n2)CC1
Output: 0.379

Input: Write down measured IC50 (human P2Y12 receptor (Homo sapiens)) for this compound. CCOC(=O)N1CCN(C(=O)[C@H](CNc2c(O)c(=O)c2=O)NC(=O)c2cc(OCC(=O)C(C)(C)C)n(-c3ccccc3)n2)CC1
Output: 3.5

Input: Write down measured IC50 (human P2Y12 receptor (Homo sapiens)) for this compound. Cc1cc(COc2cc(C(=O)N[C@@H](CCC(=O)O)C(=O)N3CCN(c4cccc(C(F)(F)F)c4)CC3)nn2-c2ccccc2)no1
Output: 3.5

Input: Write down measured IC50 (human P2Y12 receptor (Homo sapiens)) for this compound. CCOC(=O)N1CCN(C(=O)[C@H](CCC(=O)O)NC(=O)c2cc(OC3(C(=O)O)CCC3)n(-c3ccccc3)n2)CC1
Output: 0.601

Input: Write down measured IC50 (human P2Y12 receptor (Homo sapiens)) for this compound. CCOC(=O)N1CCN(C(=O)[C@H](CC(=O)NS(C)(=O)=O)NC(=O)c2cc(OCC(=O)C(C)(C)C)n(-c3ccccc3)n2)CC1
Output: 1.6

Input: Write down measured IC50 (human P2Y12 receptor (Homo sapiens)) for this compound. COc1cc(OC)cc(N2CCN(C(=O)[C@H](CCC(=O)O)NC(=O)c3cc(OCC(=O)C(C)(C)C)n(-c4ccccc4)n3)CC2)c1
Output: 1.4
